Target: UniProtKB Q9P1W9
Sequence (Q9P1W9 whole entry): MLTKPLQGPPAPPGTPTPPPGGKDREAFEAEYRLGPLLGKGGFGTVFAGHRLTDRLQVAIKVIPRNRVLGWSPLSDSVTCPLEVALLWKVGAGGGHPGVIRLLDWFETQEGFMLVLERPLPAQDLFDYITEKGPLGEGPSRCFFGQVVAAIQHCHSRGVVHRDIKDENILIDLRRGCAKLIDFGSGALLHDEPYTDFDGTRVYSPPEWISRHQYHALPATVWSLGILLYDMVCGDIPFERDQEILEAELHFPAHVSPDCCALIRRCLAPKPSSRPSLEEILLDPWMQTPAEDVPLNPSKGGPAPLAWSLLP
Assay: ADP-Glo Kinase Assay, Pim-2
Assay type: biochemical
Conditions: 1 μM compound; read-out: Pim-2 % INH (1 μM)
Counter-ions that a name gives are not always drawn.
Kindly supply the reported inhibition at 1 µM values for the records listed here.
Field: numeric (%). Do not append units.

Query string: Report inhibition at 1 µM for CCn1c(Nc2ccccc2N)nc2c([N+](=O)[O-])c(Br)c(Br)cc21 [Example 22N] tested on UniProtKB Q9P1W9.
Result string: 23

Query string: Report inhibition at 1 µM for CCn1c(NC2CCC(N)CC2)nc2c([N+](=O)[O-])c(Br)c(Br)cc21 (centres unmarked) tested on UniProtKB Q9P1W9.
Result string: 25

Query string: Report inhibition at 1 µM for `CCn1c(N2CCC(N)CC2)nc2c(C#N)c(Br)c(Br)cc21` tested on UniProtKB Q9P1W9.
Result string: 54

Query string: Report inhibition at 1 µM for CCn1c(N2CCNCC2C)nc2c([N+](=O)[O-])c(Br)c(Br)cc21 (centres unmarked) tested on UniProtKB Q9P1W9.
Result string: 52

Query string: Report inhibition at 1 µM for CCn1c(NC2CCCNCC2)nc2c([N+](=O)[O-])c(Br)c(Br)cc21 (centres unmarked) tested on UniProtKB Q9P1W9.
Result string: 22

Query string: Report inhibition at 1 µM for CC(C)n1c(N2CCN[C@@H](C)C2)nc2c([N+](=O)[O-])c(Br)c(Br)cc21 [Example 22Z] tested on UniProtKB Q9P1W9.
Result string: 37

Query string: Report inhibition at 1 µM for CCn1c(N2CCNCC2)nc2c([N+](=O)[O-])c(Br)c(Br)cc21 [Example 1A, hydrochloride] tested on UniProtKB Q9P1W9.
Result string: 22

Query string: Report inhibition at 1 µM for CCC(C)n1c(N2CCNCC2)nc2c([N+](=O)[O-])c(Br)c(Br)cc21 (centres unmarked) [Example 2I, hydrochloride] tested on UniProtKB Q9P1W9.
Result string: 75
